target: Recombinant human HDAC4 (Homo sapiens); construct: purchased BPS Bioscience Inc; experiment: HDAC-Glo I/II assay, HDAC4; assay type: biochemical; conditions: Class IIa HDAC; compounds reduced by TCEP prior to assay; read-out: IC50 of HDAC4
Sequence (P56524 whole entry): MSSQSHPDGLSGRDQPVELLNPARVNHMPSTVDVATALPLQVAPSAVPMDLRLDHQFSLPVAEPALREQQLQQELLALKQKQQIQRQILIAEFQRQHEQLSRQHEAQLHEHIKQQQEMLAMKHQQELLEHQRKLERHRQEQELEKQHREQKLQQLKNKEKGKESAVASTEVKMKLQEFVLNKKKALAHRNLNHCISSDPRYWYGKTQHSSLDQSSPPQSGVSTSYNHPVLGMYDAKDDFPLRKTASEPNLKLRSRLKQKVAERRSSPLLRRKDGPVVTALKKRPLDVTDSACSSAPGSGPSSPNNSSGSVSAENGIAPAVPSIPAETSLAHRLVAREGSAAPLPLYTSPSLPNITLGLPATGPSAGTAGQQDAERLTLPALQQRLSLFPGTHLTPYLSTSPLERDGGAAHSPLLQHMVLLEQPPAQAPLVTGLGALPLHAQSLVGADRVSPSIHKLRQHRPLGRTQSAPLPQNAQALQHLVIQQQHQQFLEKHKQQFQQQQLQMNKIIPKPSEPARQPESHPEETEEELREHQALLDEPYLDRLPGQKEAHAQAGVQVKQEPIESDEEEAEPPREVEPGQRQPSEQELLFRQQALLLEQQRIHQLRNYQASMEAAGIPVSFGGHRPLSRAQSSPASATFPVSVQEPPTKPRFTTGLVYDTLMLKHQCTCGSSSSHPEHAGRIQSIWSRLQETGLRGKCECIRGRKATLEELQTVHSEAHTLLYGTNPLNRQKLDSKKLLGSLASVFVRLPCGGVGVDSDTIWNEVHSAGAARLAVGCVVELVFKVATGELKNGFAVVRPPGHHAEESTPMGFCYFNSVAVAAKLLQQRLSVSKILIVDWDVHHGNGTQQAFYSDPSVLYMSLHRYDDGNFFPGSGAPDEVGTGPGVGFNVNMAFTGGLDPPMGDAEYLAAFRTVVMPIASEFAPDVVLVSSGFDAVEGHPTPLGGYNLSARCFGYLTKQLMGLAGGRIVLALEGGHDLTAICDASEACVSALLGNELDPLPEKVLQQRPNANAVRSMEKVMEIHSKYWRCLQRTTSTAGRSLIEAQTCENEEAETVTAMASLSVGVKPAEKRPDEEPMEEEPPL
pIC50: −log10 of the molar value.
# maps each entry to its pIC50

{"columns": ["MOLECULE", "pIC50"],
 "data": [
  ["COC(=O)[C@H]1CSSCC/C=C/C(O)CC(=O)N[C@H](CCSC)C(=O)N1 (stereo partly shown)", "< 3.00"],
  ["CCC(C)C(NC(=O)CC(O)/C=C/CCS)C(=O)O (stereo not shown)", "< 3.00"],
  ["COC(=O)[C@@H](NC(=O)CC(O)/C=C/CCS)C(C)C (stereo partly shown)", "< 3.00"],
  ["CCC(C)[C@H]1NC(=O)[C@H]2CSSCC/C=C/[C@H](CC(=O)N[C@H](CCSC)C(=O)N2)OC(=O)C[C@@H]1OC(C)=O (stereo partly shown)", 4.39],
  ["CC(C)[C@H](NC(=O)CC(O)/C=C/CCS)C(=O)O (stereo partly shown)", "< 3.00"],
  ["CCCC[C@H](NC(=O)CC(O)/C=C/CCS)C(=O)O (stereo partly shown)", "< 3.00"],
  ["CCCC[C@H]1NC(=O)C[C@H]2/C=C/CCSSC[C@@H](NC1=O)C(=O)N[C@H](C(C)CC)[C@@H](O)CC(=O)O2 (stereo partly shown) [TDP-B, Thailandepsin B, reference compound]", 4.55],
  ["CCC(C)[C@H]1NC(=O)[C@H]2CSSCC/C=C/[C@H](CC(=O)N[C@H](CCSC)C(=O)N2)OC(=O)C[C@@H]1OC(=O)c1ccccc1 (stereo partly shown)", "~3.30"],
  ["CSCC[C@H]1NC(=O)CC(O)/C=C/CCSSC[C@H](C(=O)O)NC1=O (stereo partly shown)", "< 3.00"],
  ["CCC(C)[C@H]1NC(=O)[C@H]2CSSCC/C=C/[C@H](CC(=O)N[C@H](CCSC)C(=O)N2)OC(=O)C[C@@H]1OCCC=O (stereo partly shown)", 3.87],
  ["CCCC[C@H](NC(=O)CC(O)/C=C/CCS)C(=O)OC (stereo partly shown)", "< 3.00"],
  ["CCC(C)C(NC(=O)CC(O)/C=C/CCS)C(=O)OC (stereo not shown)", "< 3.00"],
  ["CCC(C)[C@H]1NC(=O)[C@H]2CSSCC/C=C/[C@H](CC(=O)N[C@H](CCSC)C(=O)N2)OC(=O)C[C@@H]1O (stereo partly shown) [TDP-A, Thailandepsin A, reference compound]", 4.69]
]}

---

Target: Recombinant human HDAC8 (Homo sapiens, UniProt Q9BY41)
Sequence (Q9BY41 1-377): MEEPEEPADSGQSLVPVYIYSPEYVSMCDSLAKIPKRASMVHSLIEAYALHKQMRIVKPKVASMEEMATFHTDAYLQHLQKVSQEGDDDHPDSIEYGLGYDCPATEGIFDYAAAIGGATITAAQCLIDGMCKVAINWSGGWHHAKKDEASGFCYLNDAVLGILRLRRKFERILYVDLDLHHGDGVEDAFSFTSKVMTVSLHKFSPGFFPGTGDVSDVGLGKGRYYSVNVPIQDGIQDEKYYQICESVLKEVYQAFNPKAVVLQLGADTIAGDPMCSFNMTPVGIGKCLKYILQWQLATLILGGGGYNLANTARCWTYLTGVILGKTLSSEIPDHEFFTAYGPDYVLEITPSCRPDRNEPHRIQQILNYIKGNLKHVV
Test: HDAC-Glo I/II assay, HDAC8
Conditions: Class I HDAC; compounds reduced by TCEP prior to assay
Please use Criterion met for IC50 under 10 µM and Criterion not met for everything else, ties included.

{"columns": ["COMPOUND", "CLASS_LABEL"],
 "data": [
  ["CCC(C)C(NC(=O)CC(O)/C=C/CCS)C(=O)OC (stereo not shown)", "Criterion not met"],
  ["CCC(C)[C@H]1NC(=O)[C@H]2CSSCC/C=C/[C@H](CC(=O)N[C@H](CCSC)C(=O)N2)OC(=O)C[C@@H]1OC(=O)c1ccccc1 (stereo partly shown)", "Criterion met"],
  ["CCCC[C@H]1NC(=O)C[C@H]2/C=C/CCSSC[C@@H](NC1=O)C(=O)N[C@H](C(C)CC)[C@@H](O)CC(=O)O2 (stereo partly shown) [TDP-B, Thailandepsin B, reference compound]", "Criterion not met"],
  ["CCC(C)C(NC(=O)CC(O)/C=C/CCS)C(=O)O (stereo not shown)", "Criterion not met"],
  ["COC(=O)[C@H]1CSSCC/C=C/C(O)CC(=O)N[C@H](CCSC)C(=O)N1 (stereo partly shown)", "Criterion not met"],
  ["CC(C)[C@H](NC(=O)CC(O)/C=C/CCS)C(=O)O (stereo partly shown)", "Criterion not met"],
  ["CCC(C)[C@H]1NC(=O)[C@H]2CSSCC/C=C/[C@H](CC(=O)N[C@H](CCSC)C(=O)N2)OC(=O)C[C@@H]1O (stereo partly shown) [TDP-A, Thailandepsin A, reference compound]", "Criterion met"],
  ["COC(=O)[C@@H](NC(=O)CC(O)/C=C/CCS)C(C)C (stereo partly shown)", "Criterion not met"],
  ["CCCC[C@H](NC(=O)CC(O)/C=C/CCS)C(=O)O (stereo partly shown)", "Criterion not met"],
  ["CSCC[C@H]1NC(=O)CC(O)/C=C/CCSSC[C@H](C(=O)O)NC1=O (stereo partly shown)", "Criterion not met"],
  ["CCCC[C@H](NC(=O)CC(O)/C=C/CCS)C(=O)OC (stereo partly shown)", "Criterion not met"],
  ["CCC(C)[C@H]1NC(=O)[C@H]2CSSCC/C=C/[C@H](CC(=O)N[C@H](CCSC)C(=O)N2)OC(=O)C[C@@H]1OCCC=O (stereo partly shown)", "Criterion met"]
]}

---

assay: in vivo; conditions: BALB/c, mouse, in vivo, ip
# maps each entry to its MTD at 2 weeks
QUANTITY_NAME: MTD at 2 weeks

{"columns": ["COMPOUND", "RESULT"],
 "data": [
  ["CSCC[C@H]1NC(=O)CC(O)/C=C/CCSSC[C@H](C(=O)O)NC1=O (stereo partly shown) [TDF3]", "> 200 mg/kg"],
  ["CCC(C)[C@H]1NC(=O)[C@H]2CSSCC/C=C/[C@H](CC(=O)N[C@H](CCSC)C(=O)N2)OC(=O)C[C@@H]1OC(C)=O (stereo partly shown) [TDC3]", "> 200 mg/kg"],
  ["CCCC[C@H](NC(=O)CC(O)/C=C/CCS)C(=O)OC (stereo partly shown) [TDF5m]", "> 200 mg/kg"],
  ["CCCC[C@H]1NC(=O)C[C@H]2/C=C/CCSSC[C@@H](NC1=O)C(=O)N[C@H](C(C)CC)[C@@H](O)CC(=O)O2 (stereo partly shown) [TDP-B, Thailandepsin B, reference compound]", "6.25 mg/kg"],
  ["CCC(C)[C@H]1NC(=O)[C@H]2CSSCC/C=C/[C@H](CC(=O)N[C@H](CCSC)C(=O)N2)OC(=O)C[C@@H]1OC(=O)c1ccccc1 (stereo partly shown) [TDC1]", "50 mg/kg"],
  ["CCC(C)C(NC(=O)CC(O)/C=C/CCS)C(=O)O (stereo not shown) [TDF4]", "> 200 mg/kg"],
  ["CCC(C)[C@H]1NC(=O)[C@H]2CSSCC/C=C/[C@H](CC(=O)N[C@H](CCSC)C(=O)N2)OC(=O)C[C@@H]1OCCC=O (stereo partly shown) [TDC2]", "12.5 mg/kg"],
  ["CCC(C)[C@H]1NC(=O)[C@H]2CSSCC/C=C/[C@H](CC(=O)N[C@H](CCSC)C(=O)N2)OC(=O)C[C@@H]1O (stereo partly shown) [TDP-A, Thailandepsin A, reference compound]", "6.25 mg/kg"],
  ["CC(C)[C@H](NC(=O)CC(O)/C=C/CCS)C(=O)O (stereo partly shown) [TDF6]", "> 200 mg/kg"],
  ["COC(=O)[C@H]1CSSCC/C=C/C(O)CC(=O)N[C@H](CCSC)C(=O)N1 (stereo partly shown) [TDF3m]", "> 200 mg/kg"],
  ["CCCC[C@H](NC(=O)CC(O)/C=C/CCS)C(=O)O (stereo partly shown) [TDF5]", "> 200 mg/kg"],
  ["COC(=O)[C@@H](NC(=O)CC(O)/C=C/CCS)C(C)C (stereo partly shown) [TDF6m]", "> 200 mg/kg"],
  ["CCC(C)C(NC(=O)CC(O)/C=C/CCS)C(=O)OC (stereo not shown) [TDF4m]", "> 200 mg/kg"]
]}

---

target: Recombinant human HDAC3 (Homo sapiens); assay: HDAC-Glo I/II assay, HDAC3; conditions: Class I HDAC; compounds reduced by TCEP prior to assay
Sequence (O15379 whole entry): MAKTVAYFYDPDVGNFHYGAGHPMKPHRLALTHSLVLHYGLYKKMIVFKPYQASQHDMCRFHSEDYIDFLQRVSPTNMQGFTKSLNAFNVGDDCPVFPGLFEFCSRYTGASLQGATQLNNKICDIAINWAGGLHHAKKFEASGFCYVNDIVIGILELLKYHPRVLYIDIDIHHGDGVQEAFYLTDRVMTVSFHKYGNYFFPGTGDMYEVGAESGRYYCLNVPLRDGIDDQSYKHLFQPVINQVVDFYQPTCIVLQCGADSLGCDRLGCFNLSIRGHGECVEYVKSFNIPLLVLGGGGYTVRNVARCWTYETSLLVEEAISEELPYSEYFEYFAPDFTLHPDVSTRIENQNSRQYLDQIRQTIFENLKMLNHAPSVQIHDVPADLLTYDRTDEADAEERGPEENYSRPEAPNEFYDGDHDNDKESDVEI
Sequence (Q9Y618 395-489 partner limits assumed): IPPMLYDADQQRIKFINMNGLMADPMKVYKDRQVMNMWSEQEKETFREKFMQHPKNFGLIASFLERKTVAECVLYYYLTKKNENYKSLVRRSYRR
Please use fulfilled for IC50 under 100 nM and not fulfilled for everything else, ties included.

{"columns": ["COMPOUND", "CLASS_LABEL"],
 "data": [
  ["CCC(C)[C@H]1NC(=O)[C@H]2CSSCC/C=C/[C@H](CC(=O)N[C@H](CCSC)C(=O)N2)OC(=O)C[C@@H]1OC(C)=O (stereo partly shown)", "not fulfilled"],
  ["CCC(C)C(NC(=O)CC(O)/C=C/CCS)C(=O)O (stereo not shown)", "not fulfilled"],
  ["CCCC[C@H](NC(=O)CC(O)/C=C/CCS)C(=O)OC (stereo partly shown)", "not fulfilled"],
  ["CSCC[C@H]1NC(=O)CC(O)/C=C/CCSSC[C@H](C(=O)O)NC1=O (stereo partly shown)", "not fulfilled"],
  ["CCC(C)[C@H]1NC(=O)[C@H]2CSSCC/C=C/[C@H](CC(=O)N[C@H](CCSC)C(=O)N2)OC(=O)C[C@@H]1O (stereo partly shown) [TDP-A, Thailandepsin A, reference compound]", "fulfilled"],
  ["CCC(C)[C@H]1NC(=O)[C@H]2CSSCC/C=C/[C@H](CC(=O)N[C@H](CCSC)C(=O)N2)OC(=O)C[C@@H]1OC(=O)c1ccccc1 (stereo partly shown)", "not fulfilled"],
  ["CCCC[C@H]1NC(=O)C[C@H]2/C=C/CCSSC[C@@H](NC1=O)C(=O)N[C@H](C(C)CC)[C@@H](O)CC(=O)O2 (stereo partly shown) [TDP-B, Thailandepsin B, reference compound]", "fulfilled"],
  ["CC(C)[C@H](NC(=O)CC(O)/C=C/CCS)C(=O)O (stereo partly shown)", "fulfilled"],
  ["CCC(C)[C@H]1NC(=O)[C@H]2CSSCC/C=C/[C@H](CC(=O)N[C@H](CCSC)C(=O)N2)OC(=O)C[C@@H]1OCCC=O (stereo partly shown)", "not fulfilled"],
  ["CCCC[C@H](NC(=O)CC(O)/C=C/CCS)C(=O)O (stereo partly shown)", "not fulfilled"],
  ["COC(=O)[C@H]1CSSCC/C=C/C(O)CC(=O)N[C@H](CCSC)C(=O)N1 (stereo partly shown)", "not fulfilled"]
]}

Origin of measurements: patent US11149062B2
